Tested on: HCT-116
PROCEDURE_TEXT: NCI tumour cell line growth inhibition, 48 h
Activity calls are given as the source filed them. Rule as the data show it: active = GI50 up to about 1.1 µM and inactive = higher.
Listed here are compounds together with their documented GI50.

Below: 5 compounds and their reported GI50.
[
  {
    "COMPOUND": "O=[N+]([O-])/C(C(Cl)=C(Cl)Cl)=C(/Nc1cccc2cccnc12)n1nnc2ccccc21",
    "GI50": "19.3 µM (inactive)"
  },
  {
    "COMPOUND": "CCN1C(=O)c2cc(OC)c(OC)cc2C(=O)C12OC(=O)c1cc3c(cc12)OCO3 (stereo not drawn)",
    "GI50": "33.1 µM (inactive)"
  },
  {
    "COMPOUND": "COc1cccc([C@H]2C/C(=N\\NC(=O)C(=O)N[C@@H](C)c3ccccc3)c3ccccc3N2)c1",
    "GI50": "0.0209 µM (active)"
  },
  {
    "COMPOUND": "Clc1ccc2c(NCCCCCCNc3ccnc4cc(Cl)ccc34)ccnc2c1",
    "GI50": "1.8 µM (inactive)"
  },
  {
    "COMPOUND": "COc1ccc2nc(NC(=O)C(=O)C(C#N)c3ccc([N+](=O)[O-])cc3)sc2c1 (stereo not drawn)",
    "GI50": "> 100 µM (inactive)"
  }
]

// next entry
Exercise: Requested field: GI50. Item: C[N+]1(CCC(=O)c2ccccc2)CCC2CCC(C2)C1 (stereo not drawn)
Key: > 100 µM (inactive)
